# Tested on: SW-620 colon
# assay: NCI-60 one-dose screen, 48 h (100 = growth as untreated, 0 = no growth, -100 = all killed)
# condition-context: 10 µM
About 83,000 compounds went through this panel and 20% of them were active in at least one assay; those are over-represented in the sample as a whole.
Parameter threshold = 60%. Response is fulfilled when growth meets or exceeds it, else not fulfilled.

Below, 5 molecules whose answers are already recorded.
molecule	label-class
COc1ccc(C(C)=C(c2ccc(OCCCN(C)C)cc2)c2ccc(OCCCN(C)C)cc2)cc1	not fulfilled
CN(C)c1ccc(/C=C/c2nc3ccccc3c(=O)n2CC(=O)Nc2ccccc2)cc1	not fulfilled
O=C(CSc1nnc(-c2c[nH]c3ccccc23)n1-c1ccccc1)c1ccc(Cl)cc1	fulfilled
Cc1ccc(-c2cc(-c3cc4ccccc4nc3Cl)[nH]c(=S)n2)cc1	fulfilled
CCCn1c(=O)c2[nH]c(-c3ccc(OCc4nc5ccccc5[nH]4)cc3)nc2n(CCC)c1=O	not fulfilled

stdin: growth >= 60% for `CCCCSc1nc(Nc2ccc(/C(C)=N/NC(N)=S)cc2)c(C#N)c(-c2ccccc2)n1` ?
stdout: not fulfilled

stdin: Is growth for `COc1ccc(N(C)c2cc(C#N)nc3ccccc23)cc1/C=C/C(=O)NO` at or above 60%?
stdout: not fulfilled

stdin: Decide: is the reported value of growth for `COc1ccc(CN2[C@H](C(=O)NCCCCCCC(=O)NO)Cc3c([nH]c4ccccc34)[C@H]2C2CC2)cc1` equal to or greater than 60%?
stdout: not fulfilled

stdin: API: above_or_equal(metric=growth, cutoff=60%) for item `O=C(Nc1cccc(C(F)(F)F)c1)c1cncc(C#Cc2cnc3cccnn23)c1`
stdout: not fulfilled

stdin: hey, is growth for this one >= 60%? CN(C)c1ccc(/C=C/C(=O)c2ccc(NC(=O)CN3C(=O)NC(C)(c4ccccc4)C3=O)cc2)cc1 (centres undefined)
stdout: fulfilled

stdin: Record `Cc1cc(C)nc(NS(=O)(=O)c2ccc(N/C(N)=N/c3nccc(-c4cccs4)n3)cc2)n1` ; criterion: growth no lower than 60%. Met?
stdout: fulfilled

stdin: Exam item: decide whether the reported growth for CCOC(=O)C(Cc1ccccc1)N1C(=O)/C(=C/N2N=C(c3ccc(OC)cc3)CC2c2ccc3ccccc3c2)SC1=S (centres undefined) is at least 60%.
stdout: not fulfilled

stdin: Entry `COc1ccc(CCN2C(=O)/C(=C/c3csc(C#N)n3)SC2=S)cc1OC` : is its growth no less than 60%?
stdout: not fulfilled

stdin: Hi team, for `C=C(C)[C@@H]1CC[C@]2(COP(=O)(OCC)OCC)CC[C@]3(C)[C@H](CC[C@@H]4[C@@](C)(CCCN)[C@H](C(=C)C)CC[C@]43C)[C@@H]12` , is the recorded growth at or above 60%?
stdout: not fulfilled

====

# System: NCI-H226 lung
# assay: NCI-60 one-dose screen, 48 h (100 = growth as untreated, 0 = no growth, -100 = all killed)
# condition-context: 10 µM
This is part of a sample that, as a whole, favours compounds with a hit. Of some 83,000 tested, about 20% had one in any assay.
Exercise: state measured growth for each of the compounds provided.
Give bare numbers, in %.

Field: example entries. Status: answers known.
compound	value-units	measured-value
COc1ccc(NC(=O)CSc2nnc(-c3ccc4nc(-c5ccc(Cl)cc5)[nH]c4c3)o2)cc1	%	80.3
N#Cc1c(NC(=O)c2ccc(C(F)(F)F)cc2)sc2c1CCC(O)=C2	%	46.9
N#Cc1ccc(-c2nn(-c3ccc(C(=O)O)cc3)cc2CNc2cc(Cl)cc(Cl)c2)cc1	%	47.2

Please give growth, item by item, for the list that follows.
1. COC(=O)CC1CC1C1Cc2c(nc(N(C)S(C)(=O)=O)nc2C(C)C)-c2ccc(F)cc21 (stereo unspecified)
2. COc1ccc(CN2[C@@H](C(=O)NCc3ccc(C(=O)NO)cc3)Cc3c([nH]c4ccccc34)[C@@H]2C)cc1

stdout:
78.8
45.8

stdin: I'd like to know its growth. The compound in question is CCOC(=O)C(Cc1ccccc1)N1C(=O)/C(=C/N2N=C(c3ccc(OC)cc3)CC2c2ccc3ccccc3c2)SC1=S (stereo unspecified)
stdout: -41.8

====

Please provide measured growth for the entries that follow.
# Tested on: BT-549 breast
# assay: NCI-60 one-dose screen, 48 h (100 = growth as untreated, 0 = no growth, -100 = all killed)
# condition-context: 10 µM
Compounds without any hit were thinned out: in the full panel of roughly 83,000, 20% have a hit.
Numbers only, in %.

// worked examples, growth included
compound	value-units	growth
C=C[C@@]12CN3CC[C@]1(O)[C@@](C(=O)OC)(CO2)c1[nH]c2ccccc2c1C3	%	38.4
CN(C(=O)c1ccc(C(C)(C)C)cc1)c1sc2c(c1C#N)CCC(=O)C2	%	-27.7
COc1ccc(-c2nc(S(=O)(=O)c3ccc(C)cc3)c(S(=O)(=O)CC(=O)N(C)Cc3ccccc3)o2)cc1	%	72.6
C/C(=C\CC/C=C(\C)CC/C=C(\C)CC[C@@H](O)C(C)(C)O)CC/C=C(\C)CC[C@@H](O)C(C)(C)O	%	8.56
CN1CCN(c2ccc(C(=O)/C=C/c3cc(C(F)(F)F)ccc3Cl)cc2)CC1	%	-72.6
CC(=O)OC[C@@]1(C)C2CC[C@]3(C)C(CC=C4C5CC(C)(C)CC[C@]5(C(=O)Nc5ccccc5)CC[C@]43C)[C@@]2(C)C[C@@H](OC(C)=O)[C@@H]1OC(C)=O (some centres undefined)	%	47.7

Please go through the list and note growth for each compound.
1. C/C(=N\N=C\c1ccc(N(C)C)cc1)c1ccc2c(c1)Nc1ccccc1S2
2. COc1cc(/C=N/NC(=O)c2ccc3nc(-c4ccc(Cl)cc4)[nH]c3c2)cc(OC)c1OC
3. COc1ccc2nc(Cl)c(-c3cc(-c4ccccc4)nc(N)n3)cc2c1

stdout:
58.2
-81.5
-11.1

====

# Tested on: HOP-62 NSCLC
# assay: NCI-60 one-dose screen, 48 h (100 = growth as untreated, 0 = no growth, -100 = all killed)
# condition-context: 10 µM
Compounds without any hit were thinned out: in the full panel of roughly 83,000, 20% have a hit.
result-type: growth (%)
One number for each entry, in %.

CCCCCCCCCCCCCCCCCCCC(=O)NCCc1c[nH]c2ccc(OC(=O)CCCC(=O)OCCOOCCOOCCOOCCOOCCOOCCOOCCOOCCOOCCOOCCOOCCOOCCOC)cc12 120

Below are 3 compounds. Give each one its growth.
1. CCCCCc1ccc(S(=O)(=O)N(C(C)=O)c2cc(-c3csc(N(C)C(C)=O)n3)ccc2N2CCN(C)CC2)cc1
2. NS(=O)(=O)c1ccc(NC(=O)CSc2ccc(-c3ccccc3)nn2)c(Br)c1
3. O=C(N/C(=C1/OCCN1Cc1ccccc1)[P+](c1ccccc1)(c1ccccc1)c1ccccc1)c1ccccc1

stdout:
1: 51.6; 2: 17.4; 3: 44.8

====

# Tested on: NCI/ADR-RES ovarian
# assay: NCI-60 one-dose screen, 48 h
# condition-context: 10 µM
This is part of a sample that, as a whole, favours compounds with a hit. Of some 83,000 tested, about 20% had one in any assay. The source made the active and inactive calls. The calls were made as follows: active = growth percent below 10; inactive = the rest.
Lab note: assign the record to one of T (active), F (inactive)

Below, 2 molecules whose answers are already recorded.
molecule	label-class
COc1cc(/C=N/NC(=O)c2ccc3nc(-c4ccc(Cl)cc4)[nH]c3c2)cc(OC)c1OC	F
CC1(C)[C@@H](NCO)CC[C@]2(C)[C@H]3C(=O)C=C4[C@@H]5C[C@](C)(CO)CC[C@]5(C)CC[C@@]4(C)[C@]3(C)CC[C@@H]12	F

stdin: Could you check what this test reported for `COc1ccc2[nH]c(=O)c(CSc3cccc(N)c3)cc2c1` ?
stdout: F

stdin: Recorded test call requested for `O=C1NC(=NC23CC4CC(CC(C4)C2)C3)N/C1=C\c1ccc2ncccc2n1`
stdout: T

stdin: Entry `O=c1[nH]c2ccc(Cl)cc2cc1CSc1ccc(Nc2nccc(-c3ccc(Cl)cc3)n2)cc1` : call = ?
stdout: F

stdin: Assay result, entry `COc1cc2c3c(n(CCCn4ccnc4)c(=O)c2cc1OC)-c1nc2c(cc1C3=O)OCO2` — outcome?
stdout: F

stdin: Please indicate how the test categorized `N#Cc1c(NC(=O)c2ccc(C(F)(F)F)c(Cl)c2)sc2c1CCC(=O)C2` .
stdout: T

stdin: Hi team, can someone confirm the assay call for CN1C(=O)N(C)C2SC(N/N=C/c3ccc(F)cc3)=NC21 (stereo not drawn) ?
stdout: F

====

# Tested on: UACC-62 melanoma
# assay: NCI-60 one-dose screen, 48 h
# condition-context: 10 µM
Compounds without any hit were thinned out: in the full panel of roughly 83,000, 20% have a hit. The source made the active and inactive calls. How the source made its calls: active means growth percent below 10; inactive means the rest.
Your reply should match one of these outcome classes. class 1 for active, class 0 for inactive

stdin: Hey, what did the test say about `CN(C)CCNC(=O)OCCCCOc1cc(O)c2c(=O)cc(-c3ccccc3)oc2c1` ?
stdout: class 1

stdin: Please let me know the test result on file for `CN1CCO/C1=C(/NC(=O)c1ccc(Cl)cc1)[P+](c1ccccc1)(c1ccccc1)c1ccccc1` .
stdout: class 0

stdin: What outcome does the record of this test show for `CCCCCc1ccc(S(=O)(=O)Nc2cc(-c3csc(N(C)C(C)=O)n3)ccc2N2CCN(C)CC2)cc1` ?
stdout: class 1

stdin: Give the logged outcome of this assay for the following compound: `CCN1CCN(c2ccc(NC(=O)Nc3ccc(-c4cc(C(=O)NC)c5ncccc5n4)cc3)cc2C(F)(F)F)CC1`
stdout: class 1

stdin: Any idea what this test logged for `COc1ccc(-c2cc(C(=O)N=Nc3c(O)[nH]c4ccc(F)cc34)c3ccccc3n2)cc1` ?
stdout: class 0

stdin: Just curious, what result did CN1C(=O)N(C)C2SC(N/N=C/C=C/c3ccccc3)=NC21 (configuration not stated) get here?
stdout: class 0

stdin: Record lookup: outcome of this test for `COc1ccc2[nH]c(O)c(N=NC(=O)c3cc(-c4ccc(C)cc4)nc4ccccc34)c2c1` ?
stdout: class 0
